Provenance of the data: paper PMC4556614

TEST TARGET: OCT2 (Homo sapiens)
Sequence (O15244 whole entry): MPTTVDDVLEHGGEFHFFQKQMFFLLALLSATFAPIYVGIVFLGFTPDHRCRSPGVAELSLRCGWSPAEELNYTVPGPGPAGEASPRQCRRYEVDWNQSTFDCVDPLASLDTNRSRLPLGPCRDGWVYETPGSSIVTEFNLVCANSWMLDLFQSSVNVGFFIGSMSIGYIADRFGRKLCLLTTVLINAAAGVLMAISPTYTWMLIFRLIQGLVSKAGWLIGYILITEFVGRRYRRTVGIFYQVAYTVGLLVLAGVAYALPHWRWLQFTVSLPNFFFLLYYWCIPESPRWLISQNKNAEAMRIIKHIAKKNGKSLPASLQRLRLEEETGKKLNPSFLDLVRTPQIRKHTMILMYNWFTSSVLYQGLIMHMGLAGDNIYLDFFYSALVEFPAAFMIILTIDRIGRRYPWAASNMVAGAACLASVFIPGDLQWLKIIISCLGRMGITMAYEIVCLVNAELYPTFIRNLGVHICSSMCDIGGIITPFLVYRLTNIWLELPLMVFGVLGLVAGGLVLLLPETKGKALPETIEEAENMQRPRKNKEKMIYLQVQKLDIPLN
ASSAY NAME: in vitro
CONDITION INFO: human, pH 7.3
With a cut-off of 600 nM, any IC50 strictly below it is called 1; any IC50 meeting it or above is called 0.

Known results for molecules:
CC(=O)S[C@@H]1CC2=CC(=O)CC[C@]2(C)[C@H]2CC[C@@]3(C)[C@@H](CC[C@@]34CCC(=O)O4)[C@H]12    0
COc1ccnc(C[S+]([O-])c2nc3ccc(OC(F)F)cc3[nH]2)c1OC (stereo not drawn)    1

Proceed to the following item.
Given the entry Cc1ccc(-c2nc3ccc(C)cn3c2CC(=O)N(C)C)cc1 , would its reported IC50 be below 600 nM?
1
